# assay_text: Inhibition of human recombinant CCR5 encoding an HIV-1-longterminal-repeat-regulated beta-galactosidase reporter gene expressed in human HeLaP4 cells assessed as reduction of interaction with HIV-1 gp160 expressed in CHO cells by cell-cell fusion assay

input_smiles: Cc1nc2ccccc2n1C1CCN(CCC(c2ccccc2)c2ccccc2)CC1
IC50 / µM: 0.65
